In this section we review reported IC50 values for a set of compounds.
- TGT: glutaminase (GAC) (Homo sapiens)
- Sequence (O94925 55-598 isoform O94925-3 limits assumed): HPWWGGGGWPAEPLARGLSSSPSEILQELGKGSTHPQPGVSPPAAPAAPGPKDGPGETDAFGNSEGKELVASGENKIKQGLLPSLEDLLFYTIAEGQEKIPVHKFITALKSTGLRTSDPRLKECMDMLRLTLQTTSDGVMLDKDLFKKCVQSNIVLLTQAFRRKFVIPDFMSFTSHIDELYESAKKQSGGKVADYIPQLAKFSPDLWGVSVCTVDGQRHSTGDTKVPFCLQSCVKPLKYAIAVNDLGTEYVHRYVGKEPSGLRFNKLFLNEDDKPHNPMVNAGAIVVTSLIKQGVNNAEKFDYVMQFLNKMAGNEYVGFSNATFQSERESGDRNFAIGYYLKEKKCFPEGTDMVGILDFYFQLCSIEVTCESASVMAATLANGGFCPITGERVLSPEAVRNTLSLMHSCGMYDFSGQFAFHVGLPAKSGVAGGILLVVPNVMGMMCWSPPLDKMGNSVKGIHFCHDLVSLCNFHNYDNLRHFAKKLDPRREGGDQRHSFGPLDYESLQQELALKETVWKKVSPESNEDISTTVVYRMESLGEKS

For O=C(Cc1cc(N2CCC2)ccn1)Nc1nnc([C@H]2CCC[C@H](c3nnc(NC(=O)Cc4cc(N5CCC5)ccn4)s3)C2)s1 [Compound 254] , write its IC50.
100 to 500 nM

For O=C(Cc1ccncn1)Nc1nnc([C@H]2CCC[C@H](c3nnc(NC(=O)Cc4ccncn4)s3)C2)s1 [Compound 230] , write its IC50.
1000 to 2000 nM

For CCOc1ccnc(CC(=O)Nc2nnc([C@H]3CCC[C@H](c4nnc(NC(=O)Cc5cc(OCC)ccn5)s4)C3)s2)c1 [Compound 247] , write its IC50.
< 100 nM

For COc1ccccc1CC(=O)Nc1nnc([C@H]2CC[C@H](c3nnc(NC(=O)Cc4ccccc4OC)s3)C2)s1 [Compound 284] , write its IC50.
< 100 nM
